pIC50: −log10 of the molar value.
Compiled pIC50 measurements on Adenosine receptor A2b (Homo sapiens) taken from the literature.

Cc1c(-c2ncco2)nc(N)n2nc(CNCc3cnn(CC(C)(C)O)c3)nc12 | 5.88

I'm hoping you can list pIC50 for every compound here, please.
1. COc1cc2nc(N)n3nc([C@@H]4CCCN(c5cnn(CC(C)(C)O)c5)C4)nc3c2cc1F
2. COc1cc2nc(N)n3nc([C@@H]4CCCN(c5cnn(CS(C)(=O)=O)c5)C4)nc3c2cc1F
3. Cc1nc2c(Cl)c(N)nc(-c3ccccc3)n2n1
4. Cc1cc2c(nc(-c3ccco3)n3nc(C(F)(F)F)nc23)[nH]1
5. Cc1c(-c2cc(F)cc(Cl)c2)nc(N)c2nc(Cc3ccccc3)nn12
6. COc1cc2nc(N)n3nc(C4CCC(C)N(c5cnn(CC6(CF)COC6)c5)C4)nc3c2cc1F (single isomer, unassigned)
7. Cc1ccc(-c2nc(NC(=O)C3CC3)cn3cc(C(F)(F)F)nc23)o1
8. Cc1nc2nc(N[C@@H](C)c3cncc(F)c3)nc(C(=O)N3CC(C(N)=O)C3)c2s1

1: 6.98; 2: 7.18; 3: 7.00 to 8.00; 4: > 8.00; 5: 7.46; 6: 6.55; 7: > 8.00; 8: > 7.00

I'm hoping you can list pIC50 for every compound here, please.
1. Cc1nc2nc(N[C@@H](C)c3cccnc3)nc(C(=O)N3CC(NC(=O)C4CCOCC4)C3)c2s1
2. CC(=O)Nc1cc2nc(C(C)C)nn2c(-c2ccco2)n1
3. Cc1ccc(-c2nc(N)cn3ncnc23)o1
4. COc1cc2nc(N)n3nc(C4CCC(C)N(c5cnn(CC(C)(C)O)c5C)C4)nc3c2cc1F (centres unmarked)
5. Cc1nc2c(nc(-c3ccc(C)o3)n3nc(C(C)C)nc23)[nH]1
6. Cc1nc2nc(N[C@@H](C)c3cncc(F)c3)nc(C(=O)N3CC[C@H](CO)C3)c2s1
7. COc1cc2nc(N)n3nc([C@@H]4CCCN(c5ccc(OC(F)F)nc5)C4)nc3c2cc1F
8. Cc1cn2c(Cl)c(N)nc(-c3ccc(F)cc3)c2n1

6.00 to 7.00
> 8.00
6.00 to 7.00
5.52
7.00 to 8.00
> 7.00
7.56
6.00 to 7.00

I'm hoping you can list pIC50 for every compound here, please.
1. Nc1nc(-c2ccccc2)c2nc(C(F)(F)F)nn2c1Cl
2. Cn1cc(N2CCCC(c3nc4c5c(F)c(F)ccc5nc(N)n4n3)C2)cn1 (single isomer, unassigned)
3. Cc1nc2nc(N[C@@H](C)c3ccccn3)nc(C(=O)N3CC[C@H](O)C3)c2s1
4. CCNC(=O)Nc1cn2cc(C)nc2c(-c2ccco2)n1
5. Cc1nc2c(Br)c(N)nc(-c3ccccc3)n2n1
6. CC(=O)Nc1cc2nc(C3COC3)nn2c(-c2ccc(C)o2)n1

> 8.00
5.82
> 7.00
7.00 to 8.00
7.00 to 8.00
7.00 to 8.00

* * *

Compiled pIC50 measurements on Adenosine receptor A2b (Homo sapiens) taken from the literature.
Numbers only, as −log10 of the molar value.

Examples from the recorded data:
COc1cccc2c1nc(N)n1nc(C3CC3c3cnc(C)nc3)nc21 (stereo not drawn) | 6.14
Cc1c(-c2ncco2)nc(N)c2nc(Cc3ncccc3F)nn12 | 7.73
Cc1c(-c2ncco2)nc(N)n2nc(CCN3CCc4c(nnn4C45CC(C4)C5)C3)nc12 | 7.49
C[C@H]1CC[C@@H](c2nc3c4cc(F)cc(F)c4nc(N)n3n2)CN1c1cnn(CC(C)(C)O)c1 | 7.78
COc1ncc(-c2nc(N)c3nc(Cc4ccccc4)nn3c2C)cc1Cl | 6.84

I'm hoping you can list pIC50 for every molecule here, please.
1. Cc1c(-c2cccc(F)c2)nc(N)n2nc(CCN3CCn4c(cnc4C(C)C)C3)nc12
2. C[C@H]1CC[C@@H](c2nc3c4cc(F)c(Cl)cc4nc(N)n3n2)CN1c1cnn(CC(C)(C)O)c1
3. CNC(=O)c1cccc(C2CC2c2nc3c4cccc(OC)c4nc(N)n3n2)c1 (stereo not drawn)
4. COc1cccc2c1nc(N)n1nc([C@H]3C[C@@H](c4cccc(C(C)(C)O)c4)C3)nc21
5. Cc1c(-c2ncco2)nc(N)n2nc(CCN3CCc4c(nnn4C4CC4)C3)nc12

1. 7.43
2. 8.74
3. 7.60
4. 7.97
5. 6.95
